Origin of the recorded values: the supplement of paper PMC7125110

B1: glmS ribozyme (parent)
chain: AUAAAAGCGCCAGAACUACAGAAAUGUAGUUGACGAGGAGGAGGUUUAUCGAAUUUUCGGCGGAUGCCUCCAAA

Variants of: B1
assay: kcat; higher = faster cleavage; RNA array
experimental_parameters: with glucosamine-6-phosphate
Variants at the floor of the assay were thinned out.
Recorded kcat, one value per entry.
All answers are understood in s⁻¹, so give the number only.

>  <variant_designation>
U54A U65G

>  <kcat [s⁻¹]>
0.00357

$$$$
>  <variant_designation>
U30G G32C

>  <kcat [s⁻¹]>
0.000158

$$$$
>  <variant_designation>
U55G C71A

>  <kcat [s⁻¹]>
0.00224

$$$$
>  <variant_designation>
G13A C16G

>  <kcat [s⁻¹]>
0.000217

$$$$
>  <variant_designation>
U54A U65A

>  <kcat [s⁻¹]>
0.00834

$$$$
>  <variant_designation>
U57A C68A

>  <kcat [s⁻¹]>
2.64e-05

$$$$

**Query** Quickly give me recorded kcat for C58A C70A
**Result** 4.48e-05

**Query** Query kcat for A14G A64U
**Result** 0.000311
